# SYSTEM UNDER TEST: Porcine Brain Tubulin (Sus scrofa, UniProt P02550+P02554)
# Construct: Porcine Brain Tubulin (T240); purchased Cytoskeleton, Inc T240; BK011P; host or cells: porcine brain (tissue-purified)
# Sequence (P02550 whole entry): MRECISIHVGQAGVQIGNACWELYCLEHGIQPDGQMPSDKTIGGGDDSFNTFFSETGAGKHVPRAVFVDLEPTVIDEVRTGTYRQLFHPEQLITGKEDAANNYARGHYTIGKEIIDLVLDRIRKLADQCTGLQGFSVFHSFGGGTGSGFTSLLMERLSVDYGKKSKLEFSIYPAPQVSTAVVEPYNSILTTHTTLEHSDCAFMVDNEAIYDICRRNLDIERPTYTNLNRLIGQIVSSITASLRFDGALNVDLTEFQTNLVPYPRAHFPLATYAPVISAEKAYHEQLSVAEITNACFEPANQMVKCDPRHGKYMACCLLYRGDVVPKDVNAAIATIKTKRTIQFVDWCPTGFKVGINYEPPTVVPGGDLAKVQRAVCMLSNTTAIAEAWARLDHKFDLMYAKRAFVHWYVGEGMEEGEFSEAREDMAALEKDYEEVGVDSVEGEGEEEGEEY
# Sequence (P02554 whole entry): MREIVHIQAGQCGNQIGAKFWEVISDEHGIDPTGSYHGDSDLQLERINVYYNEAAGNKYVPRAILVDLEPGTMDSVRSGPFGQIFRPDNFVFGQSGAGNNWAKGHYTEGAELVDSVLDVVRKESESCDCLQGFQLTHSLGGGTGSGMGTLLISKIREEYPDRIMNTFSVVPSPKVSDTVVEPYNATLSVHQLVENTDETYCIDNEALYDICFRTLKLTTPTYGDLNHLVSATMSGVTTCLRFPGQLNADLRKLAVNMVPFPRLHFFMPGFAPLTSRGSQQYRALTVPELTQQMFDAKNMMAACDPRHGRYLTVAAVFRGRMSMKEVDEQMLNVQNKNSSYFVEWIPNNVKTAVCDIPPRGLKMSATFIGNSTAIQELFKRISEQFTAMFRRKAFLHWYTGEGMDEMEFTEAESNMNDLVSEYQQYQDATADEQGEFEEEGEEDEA
# EXPERIMENTAL DETAILS: Biochemical Tubulin Polymerization Assay
# ASSAY CONDITIONS: Table 3; Tubulin Biochemical assay; read-out: Tubulin Biochem (IC50 class)
pIC50: −log10 of the molar value.
Field: pIC50. Provide a value for each of the compounds that follow.

// below: answered compounds
>>> value_measured("Cc1ccc(NC(=O)c2cc(C3CC3)cnn2)cc1-c1ccnc(-c2ccnc(NC(=O)C3CC3)c2)c1 [Example 43]")
"4.70 to 5.52"
>>> value_measured("Cc1ccc(NC(=O)c2cc(C#N)cnn2)cc1-c1ccnc(-c2ccnc(NC(=O)C3CC3)c2)c1 [Example 96]")
"4.70 to 5.52"
>>> value_measured("Cc1ccc(NC(=O)c2cc(C(F)(F)F)cnn2)cc1-c1ccnc(-c2ccnc(NC(=O)C3CC3)c2)c1 [Example 67]")
"> 5.52"

Each compound below has a reported value. Please supply its pIC50.
1. Cc1ccc(NC(=O)c2cc(C(C)(C)F)cnn2)cc1-c1ccnc(-c2ccnc(NC(=O)C3CC3)c2)c1 [Example 59]
2. Cc1ccc(NC(=O)c2cc(C(F)(F)F)cnn2)cc1-c1cc(N[C@H](C)CO)nc(-c2ccnc(NC(=O)C3CC3)c2)c1 [Example 45]

1: > 5.52; 2: 4.70 to 5.52

Each compound below has a reported value. Please supply its pIC50.
1. Cc1ccc(NC(=O)c2cnc(C(F)(F)F)nc2)cc1-c1ccnc(-c2ccnc(NC(=O)C3CC3)c2)c1 [Example 17]
2. Cc1ccc(NC(=O)c2cc(C(F)(F)F)cnn2)cc1-c1cc(N[C@H](C)CO)nc(-c2cn[nH]c2)c1 [Example 119]

1. 4.70 to 5.52
2. > 5.52

Each compound below has a reported value. Please supply its pIC50.
1. Cc1ccc(NC(=O)c2cc(C(C)(F)F)cnn2)cc1-c1ccnc(-c2ccnc(NC(=O)C3CC3)c2)c1 [Example 57]
2. Cc1ccc(NC(=O)c2cncc(C(F)(F)F)c2)cc1-c1cncc(-c2cc(NC(=O)C3CC3)ncn2)c1 [Example 66]

1. > 5.52
2. < 4.00

* * *

# System: Pa16c cells
# EXPERIMENTAL DETAILS: Pa16c Cell Proliferation Assay
# Type: cell-based
# ASSAY CONDITIONS: Table 2, read-out: Inhibition of cell proliferation in Pa16c (IC50 class)
pIC50: −log10 of the molar value.
Field: pIC50. Provide a value for each of the compounds that follow.

// below: answered compounds
>>> value_measured("Cc1cc(-c2cc(NC(=O)c3cc(C(F)(F)F)cnn3)cnc2C)cc(-c2ccnc(NC(=O)C3CC3)c2)n1")
"5.00 to 6.00"
>>> value_measured("Cc1ccc(NC(=O)c2cc(C3CC3)cnn2)cc1-c1ccnc(-c2cnsc2)c1")
"6.30 to 7.00"
>>> value_measured("Cc1ccc(NC(=O)c2cc(C(F)(F)F)cnn2)cc1-c1cc(OCCO)nc(-c2ccnc(NC(=O)C3CC3)c2)c1")
"6.30 to 7.00"

We now examine a further compound.
Field pIC50 (system: Pa16c cells) for entry Cc1ccc(NC(=O)c2cc(P(C)(C)=O)cnn2)cc1-c1ccnc(-c2ccnc(NC(=O)C3CC3)c2)c1 = 5.00 to 6.00
